Molecular target: UniProt:Q8TDS7
Test: MRGPRD antagonist activity, IP-One HTRF assay in CHO cells stably expressing human MRGPRD (versus 100 μM β-Alanine agonist)
RECORDED_METRIC: IC50

>  <SMILES>
Cc1c(-c2ccc(-n3nnc(C(=O)Nc4ccncc4)c3C3CC3)cc2)c(C(F)(F)F)nn1C

>  <RECORDED_METRIC>
IC50

>  <MEASURED_VALUE>
100 to 500 nM

$$$$

Cn1nc(-c2ccc(-n3nnc(C(=O)Nc4ccncc4)c3C3CC3)cc2)cc1-c1ccccc1 yielded IC50 of 100 to 500 nM

Recorded result, Cc1cn(C)nc1-c1ccc(-n2nnc(C(=O)Nc3ccncc3)c2C2CC2)cc1 , IC50: 100 to 500 nM

Measured IC50, CCc1ccc(C2(NC(=O)c3nnn(-c4ccc(-c5ccc(C#N)cc5)cc4)c3C3CC3)CC2)cn1 : 100 to 500 nM

Looking up Cc1ccc(-n2nnc(C(=O)Nc3ccncc3)c2C(C)C)cc1 , I see its IC50 listed as 500 to 1000 nM

Notebook: Cc1cc(NC(=O)c2nnn(-c3ccc(-c4c(C)nn(-c5ccccc5)c4C)cc3F)c2C2CC2)ccn1 , IC50 read as < 100 nM

Sure, the documented IC50 for CC(C)(C)n1cc(-c2cccc(-n3nnc(C(=O)Nc4ccncc4)c3C3CC3)c2)cn1 is 1000 to 3000 nM

Lookup result for N#Cc1ccc(-c2cccc(-n3nnc(C(=O)Nc4ccncc4)c3C3CC3)c2)cc1 ; measured IC50: 500 to 1000 nM

----------
Molecular target: human MRGPRD (Homo sapiens)
Assay: MRGPRD antagonist activity, IP-One HTRF assay in CHO cells stably expressing human MRGPRD (versus 100 μM β-Alanine agonist)
RECORDED_METRIC: IC50

# compound O=C(NCCc1c[nH]cn1)c1nnn(-c2ccc(-c3ccccc3)cc2)c1C1CC1 ; its IC50 = 1000 to 3000 nM

Sure, the documented IC50 for CN(C)S(=O)(=O)n1ccc(-c2ccc(-n3nnc(C(=O)Nc4ccncc4)c3C3CC3)cc2)n1 is 100 to 500 nM

For record CCn1cc(CNC(=O)c2nnn(-c3ccc(-c4cccc(C#N)c4)cc3)c2C2CC2)cn1 the listed IC50 is 1000 to 3000 nM

Value of IC50 reported for the compound Cc1c(C(C)NC(=O)c2nnn(-c3ccc(-c4ccccc4)cc3)c2C2CC2)cnn1C (centres unmarked) is 1000 to 3000 nM

# IC50 (compound: Cc1nn(C)c(F)c1-c1ccc(-n2nnc(C(=O)Nc3ccncc3)c2C2CC2)cc1 ) is < 100 nM

----------
Target: human MRGPRD (Homo sapiens, UniProt Q8TDS7)
Sequence (Q8TDS7 whole entry): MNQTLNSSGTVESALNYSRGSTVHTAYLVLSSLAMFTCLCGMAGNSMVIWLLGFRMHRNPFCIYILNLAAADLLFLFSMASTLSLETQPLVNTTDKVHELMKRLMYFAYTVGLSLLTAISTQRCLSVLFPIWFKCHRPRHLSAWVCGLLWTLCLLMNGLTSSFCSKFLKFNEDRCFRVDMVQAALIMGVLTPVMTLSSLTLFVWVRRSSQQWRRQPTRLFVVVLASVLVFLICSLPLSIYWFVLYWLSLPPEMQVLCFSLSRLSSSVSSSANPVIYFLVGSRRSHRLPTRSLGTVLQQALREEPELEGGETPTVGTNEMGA
Assay: MRGPRD antagonist activity, IP-One HTRF assay in CHO cells stably expressing human MRGPRD (versus 100 μM β-Alanine agonist)
The reader will find reported IC50 values listed item by item below.

Per the records, this compound ( O=C(N[C@H]1CCC[C@@H](O)C1)c1nnn(-c2ccc(-c3ccccc3)cc2)c1C1CC1 [Compound 14-68] ) has IC50 equal to 1000 to 3000 nM

----------
Target: human MRGPRD (Homo sapiens)
Assay: MRGPRD antagonist activity, IP-One HTRF assay in CHO cells stably expressing human MRGPRD (versus 100 μM β-Alanine agonist)
Assay type: cell-based
Experimental: Chinese Hamster Ovary (CHO) cells stably expressing human MRGPRD (Eurofins, San Diego CA) were plated in a 384-well plate at 20,000 cells per well in 12 μL of Optimem (Fisher Scientific 11-058-021). Plates were kept in the incubator at 37° C. overnight. […] Assay plates were read on either a Molecular Devices SpectraMax iD5 plate reader or a BMG ClarioStar plate reader. The HTRF ratio was calculated form the raw data and graphed using GraphPad Prism to calculate IC50 values. […]
pIC50: −log10 of the molar value.
RECORDED_METRIC: pIC50

>  <SMILES>
CC(=O)c1ccc(-c2cccc(-n3nnc(C(=O)Nc4ccncc4)c3C3CC3)c2)c(C)c1

>  <pIC50>
6.00 to 6.30

$$$$
>  <SMILES>
Cc1nn2ccccc2c1-c1ccc(-n2nnc(C(=O)Nc3ccncc3)c2C2CC2)cc1

>  <pIC50>
> 7.00

$$$$
>  <SMILES>
Cc1cccc(-c2ccc(-n3nnc(C(=O)Nc4ccncc4)c3C3CC3)cc2)c1

>  <pIC50>
6.00 to 6.30

$$$$
>  <SMILES>
CCn1cc(CNC(=O)c2nnn(-c3ccc(-c4ccc(CC#N)cc4)cc3)c2C2CC2)cn1

>  <pIC50>
6.30 to 7.00

$$$$

Measured pIC50 for this entry CC(=O)c1ccc(-c2ccc(-n3nnc(C(=O)Nc4ccncc4)c3C3CC3)cc2)cc1 on human MRGPRD (Homo sapiens): 6.30 to 7.00
